# tgt: T1, 285bZIP M291G (human, UniProt P16220-1 285-339, C300S;C310S;C337S;M291G)
# T1 sequence: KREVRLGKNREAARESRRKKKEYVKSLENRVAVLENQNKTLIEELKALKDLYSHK
# method_summary: stopped-flow fluorescence (koff/kon); 10 mM Mg2+; 10 mM MES pH 6.5, 150 mM NaCl, 10 mM MgCl2, 0.05% Tween-20, 25 C; NMR: 10 mM Tris-d11, 150 mM NaCl, 10 mM MgCl2, 1 mM NaN3, 5% D2O (NOE at 25 C)
# run_conditions: protein: recombinant; tags: extra N-terminal Gly; chain copies: 2; label: 5' Alexa Fluor 488; hairpin (self-annealing, 11 bp stem, CCCC loop)
property: pKd
Formally, pKd is defined as -log10 of the concentration c, with c in mol/L.

Asked: Give the value of pKd reported for the following: CCTGACGTCAGCCCCCTGACGTCAGG (structured_DNA) [AlexaFluor488-CREh]
Given back: 8.28
